experiment: Metabolic stability in human liver microsomes; assay type: in vitro ADME; conditions: Table 5; 37° C., NADPH
Entry flag: y if Half-life in human liver microsomes (single determinations) reaches 2 h; n if it does not.

compound: CCCCCc1cc(OC(=O)N2CCN(C)CC2)c2c(c1)OC(C)(C)[C@@H]1CCC(C)=C[C@@H]21 [THCp1]
answerLabel: y
//
compound: CCCCCc1cc(O)c(C/C=C(\C)CCC=C(C)C)c(OC(=O)N2CCNCC2)c1 [CBGp5]
answerLabel: n
//
compound: CCCCCc1cc(OC(=O)N2CCN(C)CC2)c2c(c1)OC(C)(CCC=C(C)C)C=C2 (stereo not drawn) [CBCp1]
answerLabel: y
//
compound: CCCCCc1cc(O)c(C/C=C(\C)CCC=C(C)C)c(OC(=O)N2CCN(C)CC2)c1 [CBGp2]
answerLabel: n
//
compound: CCCCCc1cc(OC(=O)C2CCNC2)c2c(c1)OC(C)(C)[C@@H]1CCC(C)=C[C@@H]21 (stereo partly drawn) [THCp2]
answerLabel: y
//
compound: CCCCCc1cc(O)c(C/C=C(\C)CCC=C(C)C)c(OC(=O)C2CCNC2)c1 (stereo not drawn) [CBGp1]
answerLabel: n

----------
Experiment: Metabolic stability in human liver microsomes
Assay type: in vitro ADME
Details: both sexes, human, microsomes, pH 7.4, Half-life in human liver microsomes (avg.)
Description: The prodrugs were incubated with the human liver microsomes at 37° C. as an indication of the susceptibility of prodrugs to undergo bioconversion in the liver. […] After immediate mixing and centrifugation (5 min at 14.000 rpm), the resulting clear supernatant was analyzed for the remaining prodrug by HPLC.

molecule: CCCCCc1cc(O)c(C/C=C(\C)CCC=C(C)C)c(O)c1 [CBG, Cannabigerol, reference compound]
unitsOfMeasure: h
half-life at 15 µg/mL: 1.61

----------
test system: reconstructed human oral buccal epithelium cells (SkinEthic HOE, TR146 cells); assay: In vitro buccal permeability (SkinEthic human oral epithelium); assay type: in vitro ADME; conditions: Table 4; buccal flux relative to parent
quantityKind: Flux compared with parent cannabinoid

molecule: CCCCCc1cc(O)c(C/C=C(\C)CCC=C(C)C)c(OC(=O)N2CCN(C)CC2)c1
result: No improvement
//
molecule: CCCCCc1cc(OC(=O)N2CCN(C)CC2)c2c(c1)OC(C)(CCC=C(C)C)C=C2 (stereo not shown)
result: No improvement
//
molecule: CCCCCc1cc(OC(=O)N2CCN(C)CC2)c(C/C=C(\C)CCC=C(C)C)c(OC(=O)N2CCN(C)CC2)c1
result: 2.6-times better
//
molecule: CCCCCc1cc(OC(=O)N2CCNCC2)c2c(c1)OC(C)(CCC=C(C)C)C=C2 (stereo not shown)
result: No improvement
//
molecule: CCCCCc1cc(OC(=O)N2CCNCC2)c2c(c1)OC(C)(C)[C@@H]1CCC(C)=C[C@@H]21
result: 1.6-times better
//
molecule: CCCCCc1cc(OC(=O)N2CCN(C)CC2)c2c(c1)OC(C)(C)[C@@H]1CCC(C)=C[C@@H]21
result: No improvement
//
molecule: CCCCCc1cc(O)c(C/C=C(\C)CCC=C(C)C)c(OC(=O)N2CCNCC2)c1
result: No improvement

----------
Recorded half-life values for a group of compounds are listed next.
assay: Stability in aqueous solutions (sodium phosphate buffer, 37° C.); type: physicochemical; settings: buffer, pH 6.8, Table 5; aqueous buffer pH 6.8, 37° C.; single determinations; read-out: Half-life in aqueous solution (converted)

compound: CCCCCc1cc(O)c(C/C=C(\C)CCC=C(C)C)c(OC(=O)C2CCNC2)c1 (stereo not shown) [CBGp1]
half-life (min): 30
//
compound: CCCCCc1cc(OC(=O)N2CCN(C)CC2)c(C/C=C(\C)CCC=C(C)C)c(OC(=O)N2CCN(C)CC2)c1 [CBGp3]
half-life (min): 16.8
//
compound: CCCCCc1cc(O)c(C/C=C(\C)CCC=C(C)C)c(OC(=O)N2CCNCC2)c1 [CBGp5]
half-life (min): 22.8
//
compound: CCCCCc1cc(OC(=O)C2CCNC2)c2c(c1)OC(C)(C)[C@@H]1CCC(C)=C[C@@H]21 (stereo partly shown) [THCp2]
half-life (min): 29.4
//
compound: CCCCCc1cc(OC(=O)N2CCNCC2)c2c(c1)OC(C)(C)[C@@H]1CCC(C)=C[C@@H]21 [THCp3]
half-life (min): 45.6
//
compound: CCCCCc1cc(O)c(C/C=C(\C)CCC=C(C)C)c(OC(=O)N2CCN(C)CC2)c1 [CBGp2]
half-life (min): 68.4
//
compound: CCCCCc1cc(OC(=O)N2CCN(C)CC2)c2c(c1)OC(C)(C)[C@@H]1CCC(C)=C[C@@H]21 [THCp1]
half-life (min): 39.6
